Tested on: 518T2
Assay: Binding affinity to beta-tubulin in mouse 518T2 cells at 0.1 to 50 uM measured after 1.5 hrs using Alexa Fluor 532 dye by copper-mediated click reaction based SDS PAGE analysis
Type: cell-based
Conditions: dose microM 0.1-50, time 1.5 hrs
The source made the active and inactive calls. The rule behind the calls is not given here.
Possible outcomes: y for active, n for inactive

- molecule smiles: "O=C(c1ccc(Cl)c([N+](=O)[O-])c1)N1CCN(c2cccc(Br)c2)CC1"
  class name: "y"
- molecule smiles: "Cc1ccc(Cl)cc1N1CCN(C(=O)c2ccc(F)c([N+](=O)[O-])c2)CC1"
  class name: "y"
- molecule smiles: "Cc1ccc(Cl)cc1N1CCN(C(=O)c2ccc(Br)c([N+](=O)[O-])c2)CC1"
  class name: "y"
- molecule smiles: "CC[C@]1(O)C[C@H]2CN(CCc3c([nH]c4ccccc34)[C@@](C(=O)OC)(c3cc4c(cc3OC)N(C=O)[C@H]3[C@@](O)(C(=O)OC)[C@H](OC(C)=O)[C@]5(CC)C=CCN6CC[C@]43[C@@H]65)C2)C1"
  class name: "n"
- molecule smiles: "COc1cccc(N2CCN(C(=O)c3ccc(Cl)c([N+](=O)[O-])c3)CC2)c1"
  class name: "y"
- molecule smiles: "Cc1ccc(Cl)cc1N1CCN(C(=O)c2ccc(Cl)c([N+](=O)[O-])c2)CC1"
  class name: "y"
- molecule smiles: "O=C(c1ccc(Cl)c([N+](=O)[O-])c1)N1CCN(c2ccccc2)CC1"
  class name: "y"
- molecule smiles: "Cc1ccc(Cl)cc1N1CCN(C(=O)c2ccc(I)c([N+](=O)[O-])c2)CC1"
  class name: "y"
- molecule smiles: "O=C(c1ccc(Cl)c([N+](=O)[O-])c1)N1CCN(c2ccccc2Cl)CC1"
  class name: "y"
- molecule smiles: "Cc1cccc(N2CCN(C(=O)c3ccc(Cl)c([N+](=O)[O-])c3)CC2)c1"
  class name: "y"

----------
Test: Anticancer activity against mouse 319N1 clone C cells assessed as reduction in cell viability measured after 72 hrs by celltiter-glo assay
Type: functional, cell-based
Settings: 319N1, 72 h
pIC50: −log10 of the molar value.

- molecule smiles: "COC(=O)c1c(C)oc2ccc(NS(=O)(=O)c3ccc(Cl)c([N+](=O)[O-])c3)cc12"
  pIC50: 5.12
- molecule smiles: "Cc1ccc(Cl)cc1N1CCN(C(=O)c2ccc(Cl)c([N+](=O)[O-])c2)CC1"
  pIC50: 5.83
